- procedure details: Toxicity in Mus musculus ddY (mouse) assessed as mortality at 250 mg/kg, ip after 3 days
- Assay type: organism-based
- Parameters: dose 250 mg/kg, route intraperitoneal
- measurement setup: in vivo
quantity: mortality at 72 h (%)
State the answer as a number, implicitly in %.

Inquiry: Looking for the measured mortality at 72 h of CN1C(=O)CSC1=S [3-METHYL-RHODANINE] , can you help?
Reply text: 40

---

- procedure details: Toxicity in Mus musculus ddY (mouse) assessed as mortality at 5 mg/kg, ip after 7 days
- Type: organism-based
- Parameters: dose 5 mg/kg, route intraperitoneal
- measurement setup: in vivo
quantity: mortality at 168 h
Report as: number unit

Inquiry: Looking for the measured mortality at 168 h of NN1C(=O)CSC1=S , can you help?
Reply text: 60%

---

- procedure details: Toxicity in Mus musculus ddY (mouse) assessed as mortality at 200 mg/kg, ip after 7 days
- Format: organism-based
- Set-up: dose 200 mg/kg, route intraperitoneal
- measurement setup: in vivo
quantity: mortality at 168 h (%)
State the answer as a number, implicitly in %.

Inquiry: Looking for the measured mortality at 168 h of CN1C(=O)CSC1=S , can you help?
Reply text: 0

---

- procedure details: Toxicity in Mus musculus ddY (mouse) assessed as mortality at 350 mg/kg, ip after 1 day
- Assay type: organism-based
- Parameters: dose 350 mg/kg, route intraperitoneal
- measurement setup: in vivo
quantity: mortality at 24 h (%)
State the answer as a number, implicitly in %.

Inquiry: Looking for the measured mortality at 24 h of O=C1CSC(=S)N1 [RHODANINE] , can you help?
Reply text: 20

---

- procedure details: Toxicity in Mus musculus ddY (mouse) assessed as mortality at 4 mg/kg, ip after 7 days
- Type: organism-based
- Set-up: dose 4 mg/kg, route intraperitoneal
- measurement setup: in vivo
quantity: mortality at 168 h (%)
State the answer as a number, implicitly in %.

Inquiry: Looking for the measured mortality at 168 h of NN1C(=O)CSC1=S [AMINORHODANINE] , can you help?
Reply text: 20

---

- procedure details: Toxicity in Mus musculus ddY (mouse) assessed as mortality at 7 mg/kg, ip after 2 days
- Format: organism-based
- Design: dose 7 mg/kg, route intraperitoneal
- measurement setup: in vivo
quantity: mortality at 48 h (%)
State the answer as a number, implicitly in %.

Inquiry: Looking for the measured mortality at 48 h of NN1C(=O)CSC1=S [AMINORHODANINE] , can you help?
Reply text: 80

---

- procedure details: Toxicity in Mus musculus ddY (mouse) assessed as mortality at 4 mg/kg, ip after 3 days
- Type: organism-based
- Design: dose 4 mg/kg, route intraperitoneal
- measurement setup: in vivo
quantity: mortality at 72 h
Report as: number unit

Inquiry: Looking for the measured mortality at 72 h of NN1C(=O)CSC1=S , can you help?
Reply text: 20%

---

- procedure details: Toxicity in Mus musculus ddY (mouse) assessed as mortality at 7 mg/kg, ip after 6 days
- Type: organism-based
- Design: dose 7 mg/kg, route intraperitoneal
- measurement setup: in vivo
quantity: mortality at 144 h (%)
State the answer as a number, implicitly in %.

Inquiry: Looking for the measured mortality at 144 h of NN1C(=O)CSC1=S [AMINORHODANINE] , can you help?
Reply text: 80
